// provenance: PubChem BioAssay AID1963429

Test system: 126254-015-R-J1-PDC complex spheroid growth, % test/control
Assay: Anticancer human tumor 126254-015-R-J1-PDC patient-derived soft tissue sarcoma cell line growth inhibition [Asc]; active = viability on the fitted dose curve at most 10% of control; inactive = the rest
Settings: second compound 0.1 µM; first compound 0.3 µM
Can you answer with just one of these options? active, inactive

// below: answered compounds
* NC(=O)C(=Cn1cnc(-c2cc(C(F)(F)F)cc(C(F)(F)F)c2)n1)c1cncnc1 + CNC(C)C(=O)NC1CN(S(=O)(=O)c2cccc(S(=O)(=O)N3CCC4CCC(C(=O)NC(c5ccccc5)c5ccccc5)N4C(=O)C(NC(=O)C(C)NC)C3)c2)CCC2CCC(C(=O)NC(c3ccccc3)c3ccccc3)N2C1=O | active
* CCN1C(C(=O)NC23CCC(C(=O)O)(CC2)CC3)C(c2cccc(Cl)c2F)C2(C(=O)Nc3cc(Cl)ccc32)C12CCCCC2 (stereo unspecified) + CNC(C)C(=O)NC1CN(S(=O)(=O)c2cccc(S(=O)(=O)N3CCC4CCC(C(=O)NC(c5ccccc5)c5ccccc5)N4C(=O)C(NC(=O)C(C)NC)C3)c2)CCC2CCC(C(=O)NC(c3ccccc3)c3ccccc3)N2C1=O | inactive
* NC(=O)C(=Cn1cnc(-c2cc(C(F)(F)F)cc(C(F)(F)F)c2)n1)c1cncnc1 + Cc1c(S(C)(=O)=O)c(-c2cc(F)cc(N3CCN(c4ccc(NS(=O)(=O)c5ccc(NC(CCN6CCC(C(=O)OCCCP(=O)(O)O)CC6)CSc6ccccc6)c(S(=O)(=O)C(F)(F)F)c5)cc4)CC3)c2)c(-c2ccc(Cl)cc2)n1C(C)C | inactive
* Cc1nc(N2CCC3(CC2)COC(C)C3N)c(CO)nc1Sc1ccnc(N)c1Cl (stereo unspecified) + Cc1c(S(C)(=O)=O)c(-c2cc(F)cc(N3CCN(c4ccc(NS(=O)(=O)c5ccc(NC(CCN6CCC(C(=O)OCCCP(=O)(O)O)CC6)CSc6ccccc6)c(S(=O)(=O)C(F)(F)F)c5)cc4)CC3)c2)c(-c2ccc(Cl)cc2)n1C(C)C | inactive
* Cc1nc(N2CCC3(CC2)COC(C)C3N)c(CO)nc1Sc1ccnc(N)c1Cl (stereo unspecified) + CNC(C)C(=O)NC1CN(S(=O)(=O)c2cccc(S(=O)(=O)N3CCC4CCC(C(=O)NC(c5ccccc5)c5ccccc5)N4C(=O)C(NC(=O)C(C)NC)C3)c2)CCC2CCC(C(=O)NC(c3ccccc3)c3ccccc3)N2C1=O | inactive

Turning now to a further compound:
Which result was noted for this compound in the test: CCN1C(C(=O)NC23CCC(C(=O)O)(CC2)CC3)C(c2cccc(Cl)c2F)C2(C(=O)Nc3cc(Cl)ccc32)C12CCCCC2 (stereo unspecified) + Cc1c(S(C)(=O)=O)c(-c2cc(F)cc(N3CCN(c4ccc(NS(=O)(=O)c5ccc(NC(CCN6CCC(C(=O)OCCCP(=O)(O)O)CC6)CSc6ccccc6)c(S(=O)(=O)C(F)(F)F)c5)cc4)CC3)c2)c(-c2ccc(Cl)cc2)n1C(C)C inactive

* * *

Test system: 126254-015-R-J1-PDC complex spheroid growth, % test/control
Test: Anticancer human tumor 126254-015-R-J1-PDC cell line growth inhibition [Asc];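 note: spheroids exposed to compound for seven days; 100% = DMSO vehicle control wells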
Settings: second compound 0.316 µM; first compound 0.01 µM; stronger effect = lower value
experimental_readout: viability, T/C (%)
Response body: numeric value in %, unit text excluded.

- O=C(c1ccc(F)c(F)c1Nc1ccc(I)cc1F)N1CC(O)([C@@H]2CCCCN2)C1 + CNC(C)C(=O)NC1CN(S(=O)(=O)c2cccc(S(=O)(=O)N3CCC4CCC(C(=O)NC(c5ccccc5)c5ccccc5)N4C(=O)C(NC(=O)C(C)NC)C3)c2)CCC2CCC(C(=O)NC(c3ccccc3)c3ccccc3)N2C1=O: 62.8

Now consider a different compound.
Record COc1c(OCCCN2CCOCC2)ccc2c3n(c(=NC(=O)c4cnc(N)nc4)nc12)CCN3 + CNC(C)C(=O)NC1CN(S(=O)(=O)c2cccc(S(=O)(=O)N3CCC4CCC(C(=O)NC(c5ccccc5)c5ccccc5)N4C(=O)C(NC(=O)C(C)NC)C3)c2)CCC2CCC(C(=O)NC(c3ccccc3)c3ccccc3)N2C1=O , field viability, T/C: 54.6
